- Test system: K4 kissing-loop RNA reporter;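 further: bound reporter read as fluorescence of individual clusters on recovered sequencing chips by microscopy, with normalized cluster intensities fitted with a binding model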
- ASSAY_METHOD_TEXT: apparent KD of K4 kissing-loop reporter; higher = weaker reporter binding
- DETAILS: Eterna round: R107; input ligand: theophylline 20 uM
QUANTITY: apparent KD of K4 kissing-loop reporter (nM)
Please respond with the number in nM and leave the unit unwritten.

# ENTRY_SEQUENCE, apparent KD of K4 kissing-loop reporter [nM]
records = [
    ("UGAUACCAGACUGAUACCAGCGAGUGAUGUUUGCUGAAAUCAGGGUCAAAGACCCUGUCUCGCCCUUGGCAGCAGUCUGGUAUCU [TheoBX 21 #SwitchBubble #StaticStem]", 223),
    ("UGUAAGCGCGUAGAUACCAGCAAACGAGUGAUGUUCAAAAGAUUAAGGAAAAGAAAGUAAUGCCCUUGGCAGCUAAUCAUAAGCG [whbob_Ex_Theo_B_sa91]", 397),
]

Lab note: measured apparent KD of K4 kissing-loop reporter of UAGGGUUGAAAAGGAUAUUUACCCUAUGUCAACGAGUGAUGUUCGUGGACAUUAGGCACAACUCGUAAAGAAGGUUUCCAGACUC [theeternabot_sameState_KL_FMN_B_39] was 97.5

Lab note: measured apparent KD of K4 kissing-loop reporter of UGGAGUGCCUGGUCGUCACUAUGCCAACCACGAGGACCGGUACGGCCGCCACUCGUGAGGGAUAUUCAGAAAGUGAUGUUUUUUG [theeternabot_exclusion_KL_Trp_A_1] was 450

Lab note: measured apparent KD of K4 kissing-loop reporter of GCUAGUUUGGAAGGAUAUUCGUGCGAUCAAGUCAAACUUUACUGAGGGCGUUUUGGAGUGAUGUUCGAAGAAGGUCCCUUACUUA [theeternabot_exclusion_KL_FMN_B_28] was 664

Lab note: measured apparent KD of K4 kissing-loop reporter of AUUAAUAACUGAGGAUAUCGUUUUACUGUAGUGAUGUUACAGAAAGUUCAAAUUAUAAUUUCUAUUCGAGAAGGCAGAAUAAUUA [JR_SSFMNB_Sub026] was 62.8

Lab note: measured apparent KD of K4 kissing-loop reporter of AGAGUACGAAAGUACUCCUCUACACACUGACGAGGACCGGUACGGCCGCCACUCGAGUUGAGUGAUGUUCGACAGUGUGUAGAGA [Omei KL Tryp A SS C v1] was 163
